The measurements presented in this section are drawn from paper PMC3848474.

# systemTested: wild type aldosterone synthase (ASWT, CYP11B2) (Homo sapiens, UniProt P19099)
# Construct: full ASWT cDNA
# Sequence (P19099 25-503): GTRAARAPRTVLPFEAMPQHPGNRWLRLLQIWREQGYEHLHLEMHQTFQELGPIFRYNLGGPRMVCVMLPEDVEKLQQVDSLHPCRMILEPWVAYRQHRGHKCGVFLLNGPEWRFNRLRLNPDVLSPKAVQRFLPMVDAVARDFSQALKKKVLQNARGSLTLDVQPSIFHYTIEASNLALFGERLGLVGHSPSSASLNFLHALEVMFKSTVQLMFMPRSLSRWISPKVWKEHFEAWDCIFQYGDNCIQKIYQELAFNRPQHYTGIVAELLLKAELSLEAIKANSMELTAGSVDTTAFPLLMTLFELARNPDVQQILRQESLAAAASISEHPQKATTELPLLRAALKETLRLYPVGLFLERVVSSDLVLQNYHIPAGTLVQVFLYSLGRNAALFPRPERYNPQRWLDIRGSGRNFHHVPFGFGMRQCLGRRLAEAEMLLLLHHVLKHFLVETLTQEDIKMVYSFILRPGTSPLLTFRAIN
# assayOverview: aldosterone production from DOC in CYP11B2-transfected HEK-293 cells, HPLC-MS/MS; Km/Vmax shift
valueKind: pIC50
As a rule, pIC50 stands for the negative log10 of the concentration, concentration in M.

Give pIC50 for the following compound: `CC(=O)[C@H]1CC[C@H]2[C@@H]3CCC4=CC(=O)CC[C@]4(C)[C@H]3CC[C@]12C`
5.65
